Reported viability index values follow for various compounds
System: Plasmodium falciparum NF54 gametocytes
assay summary: viability index relative to DMSO control (fraction); higher = less gametocyte killing
condition notes: gametocyte stage: Stage IV viability index; 12.5 µM; incubation time: 72 h

| compound | viability index |
| --- | --- |
| Oc1ccc(Br)cc1CN1CCN(Cc2cccc(F)c2)CC1 | 0.196 |
| Oc1ccc(Br)cc1CN1CCN(Cc2ccc(Cl)cc2)CC1 | 0.595 |
| CCOc1c(Cl)cc(CNC(C)C(O)c2ccccc2)cc1OC (stereo not drawn) | 0.754 |

----------
System: Plasmodium falciparum NF54 gametocytes
assay summary: viability index relative to DMSO control (fraction); higher = less gametocyte killing
condition notes: gametocyte stage: Stage III viability index; 12.5 µM; incubation time: 72 h
result type: viability index

| compound | result type | observed measurement |
| --- | --- | --- |
| CCCc1cc(O)c2c3c(c(=O)oc2c1)CN(C)CC3 | viability index | 0.649 |
| Oc1ccc(Br)cc1CN1CCN(Cc2cccc(F)c2)CC1 | viability index | 0.0787 |
| O=C(CCc1ccco1)NC1CCN(CC2(c3ccc(Cl)cc3)CCC2)CC1 | viability index | 0.854 |
| CCOc1c(Cl)cc(CNC(C)C(O)c2ccccc2)cc1OC (stereo not drawn) | viability index | 0.584 |
| C=CC12CCN(CC1)C(C(O)c1ccnc3ccc(OC)cc13)C2 (stereo not drawn) | viability index | 1.13 |
| Oc1ccc(Br)cc1CN1CCN(Cc2ccc(Cl)cc2)CC1 | viability index | 0.422 |
| CCOc1cc(CNC(C)C(O)c2ccccc2)cc(Cl)c1OCC (stereo not drawn) | viability index | 0.634 |
| CCCCCCc1cc(O)c2c3c(c(=O)oc2c1)CCC(C)C3 (stereo not drawn) | viability index | 0.578 |

----------
Test system: Plasmodium falciparum NF54 gametocytes
assay summary: viability index relative to DMSO control (fraction); higher = less gametocyte killing
condition notes: gametocyte stage: Stage II viability index; 12.5 µM; incubation time: 72 h
Each entry falls into one class according to its viability index; the ranges are interval 1: < 0.09; interval 2: ≥ 0.09 and < 0.3; interval 3: ≥ 0.3

| compound | assigned class |
| --- | --- |
| COc1ccc(CN2CCN(Cc3ccccc3)CC2)c(O)c1 | interval 2 |
| CCOc1c(Cl)cc(CNC(C)C(O)c2ccccc2)cc1OC (centres undefined) | interval 3 |
| CN(N=O)C1=C(NC2CCCCC2)C(=O)c2ccccc2C1=O | interval 1 |
| CCCCCCc1cc(O)c2c3c(c(=O)oc2c1)CCC(C)C3 (centres undefined) | interval 3 |
| COc1cc(CNCCc2ccc(Cl)cc2)cc(OC)c1O | interval 3 |
| C=CC12CCN(CC1)C(C(O)c1ccnc3ccc(OC)cc13)C2 (centres undefined) | interval 3 |

----------
Test system: Plasmodium falciparum NF54 gametocytes
assay summary: viability index relative to DMSO control (fraction); higher = less gametocyte killing
condition notes: gametocyte stage: Stage IV viability index; 12.5 µM; incubation time: 72 h
// boundary case: viability index equal to 0.9 maps to not met; strictly smaller maps to met

| compound | target desc | assigned class |
| --- | --- | --- |
| C=CC12CCN(CC1)C(C(O)c1ccnc3ccc(OC)cc13)C2 (stereo unspecified) | Plasmodium falciparum NF54 gametocytes | not met |
| CCCc1cc(O)c2c3c(c(=O)oc2c1)CN(C)CC3 | Plasmodium falciparum NF54 gametocytes | met |
| CCCCCCc1cc(O)c2c3c(c(=O)oc2c1)CCC(C)C3 (stereo unspecified) | Plasmodium falciparum NF54 gametocytes | met |
| COc1cc(CNCCc2ccc(Cl)cc2)cc(OC)c1O | Plasmodium falciparum NF54 gametocytes | not met |
| CCOc1cc(CNC(C)C(O)c2ccccc2)cc(Cl)c1OCC (stereo unspecified) | Plasmodium falciparum NF54 gametocytes | met |

----------
Test system: Plasmodium falciparum NF54 gametocytes
assay summary: viability index relative to DMSO control (fraction); higher = less gametocyte killing
condition notes: gametocyte stage: Stage V viability index; 12.5 µM; incubation time: 72 h
Label 1 when viability index < 0.6; otherwise -1.

| compound | assigned class |
| --- | --- |
| COc1ccc(CN2CCN(Cc3ccccc3)CC2)c(O)c1 | 1 |
| Oc1ccc(Br)cc1CN1CCN(Cc2cccc(F)c2)CC1 | 1 |
| CN(N=O)C1=C(NC2CCCCC2)C(=O)c2ccccc2C1=O | 1 |
| COc1cc(CNCCc2ccc(Cl)cc2)cc(OC)c1O | -1 |
| Oc1ccc(Br)cc1CN1CCN(Cc2ccc(Cl)cc2)CC1 | 1 |
| O=C(CCc1ccco1)NC1CCN(CC2(c3ccc(Cl)cc3)CCC2)CC1 | -1 |
| CCOc1cc(CNC(C)C(O)c2ccccc2)cc(Cl)c1OCC (stereo not given) | -1 |
| CCCCCCc1cc(O)c2c3c(c(=O)oc2c1)CCC(C)C3 (stereo not given) | -1 |
| CCCc1cc(O)c2c3c(c(=O)oc2c1)CN(C)CC3 | -1 |

----------
Tested on: Plasmodium falciparum NF54 gametocytes
assay summary: viability index relative to DMSO control (fraction); higher = less gametocyte killing
condition notes: gametocyte stage: Stage II viability index; 12.5 µM; incubation time: 72 h
viability index reference

| smiles repr | viability index |
| --- | --- |
| Oc1ccc(Br)cc1CN1CCN(Cc2ccc(Cl)cc2)CC1 | 0.0916 |
| Oc1ccc(Br)cc1CN1CCN(Cc2cccc(F)c2)CC1 | 0.0899 |
| CCCc1cc(O)c2c3c(c(=O)oc2c1)CN(C)CC3 | 0.296 |

Where do the numbers come from? From the supplement of paper PMC4723716.
